ASSAYED_TARGET: JAK3 (h) (Homo sapiens)
Construct: purchased Eurofins
Sequence (P52333 1-1124): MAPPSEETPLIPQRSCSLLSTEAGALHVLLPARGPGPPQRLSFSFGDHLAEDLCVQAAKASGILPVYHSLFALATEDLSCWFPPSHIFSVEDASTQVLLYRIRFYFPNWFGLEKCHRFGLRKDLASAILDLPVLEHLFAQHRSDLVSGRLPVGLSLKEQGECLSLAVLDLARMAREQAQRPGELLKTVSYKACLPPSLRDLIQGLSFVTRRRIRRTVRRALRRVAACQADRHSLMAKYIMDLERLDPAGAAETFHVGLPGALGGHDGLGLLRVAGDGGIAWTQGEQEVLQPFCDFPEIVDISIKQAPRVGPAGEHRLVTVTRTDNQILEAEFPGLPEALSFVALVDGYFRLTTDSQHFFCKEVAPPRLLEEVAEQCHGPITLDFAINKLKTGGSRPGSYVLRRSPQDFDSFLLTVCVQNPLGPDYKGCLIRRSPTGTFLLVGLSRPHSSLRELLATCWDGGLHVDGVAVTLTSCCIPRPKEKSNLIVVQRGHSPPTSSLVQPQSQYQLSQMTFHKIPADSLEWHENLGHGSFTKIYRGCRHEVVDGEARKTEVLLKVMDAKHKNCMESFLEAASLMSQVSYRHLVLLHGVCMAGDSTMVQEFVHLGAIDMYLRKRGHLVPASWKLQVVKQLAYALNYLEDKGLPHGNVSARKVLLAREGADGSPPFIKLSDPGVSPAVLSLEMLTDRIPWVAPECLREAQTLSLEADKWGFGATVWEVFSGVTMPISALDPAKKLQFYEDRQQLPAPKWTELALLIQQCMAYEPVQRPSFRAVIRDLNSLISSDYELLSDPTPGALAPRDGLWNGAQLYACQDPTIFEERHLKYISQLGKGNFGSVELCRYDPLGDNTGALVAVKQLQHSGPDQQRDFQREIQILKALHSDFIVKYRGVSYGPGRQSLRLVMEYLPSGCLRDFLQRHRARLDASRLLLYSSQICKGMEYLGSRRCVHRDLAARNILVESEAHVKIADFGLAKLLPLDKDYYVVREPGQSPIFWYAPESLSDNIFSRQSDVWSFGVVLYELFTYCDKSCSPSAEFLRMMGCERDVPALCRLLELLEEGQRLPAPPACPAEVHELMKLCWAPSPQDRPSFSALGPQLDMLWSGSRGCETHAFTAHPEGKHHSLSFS
ASSAY_PROCEDURE: Radioisotope labeling kinase assay (Eurofins), JAK3
Format: biochemical
PROTOCOL_CONDITIONS: 1 μM compound; read-out: Inhibitory activity per unit concentration/Activity % JAK3 (h)
# binning rule on activity at 1 µM: group 1 (below 20%), group 2 (20% to below 80%), group 3 (80% or more)

>>> category("C#CC(=O)Nc1cc2cc(c1)Nc1nccc(n1)-c1cccc(c1)COC/C=C/COC2 [XVII-1]")
"group 1"
>>> category("O=C(/C=C/COc1cc2cc(c1)Nc1nccc(n1)-c1cccc(c1)COC/C=C/COC2)N1CCOCC1 [XVI-14]")
"group 2"
>>> category("CCCC#CC(=O)Nc1cc2cc(c1)Nc1nccc(n1)-c1cccc(c1)COC/C=C/COC2 [XVII-2]")
"group 2"
>>> category("CN1C/C=C/COCc2cccc(c2)-c2ccnc(n2)Nc2cc(cc(NC(=O)/C=C/c3cnc[nH]3)c2)C1 [XVI-32]")
"group 2"
>>> category("CN1C/C=C/COCc2cccc(c2)-c2ccnc(n2)Nc2cc(cc(NC(=O)/C=C/CN3CCCC3)c2)C1 [XVI-25]")
"group 3"
>>> category("O=C(/C=C/COc1ccc2cc1Nc1nccc(n1)-c1cccc(c1)COC/C=C/COC2)N1CCOCC1 [XVI-22]")
"group 3"
>>> category("CCCC#CC(=O)Nc1cc2cc(c1)Nc1nccc(n1)-c1cccc(c1)COC/C=C/CN(C)C2 [XVII-4]")
"group 3"
>>> category("O=C(/C=C/COc1ccc2cc1Nc1nccc(n1)-c1cccc(c1)COC/C=C/COC2)N1CCCC1 [XVI-21]")
"group 3"
>>> category("O=C(/C=C/CNC1CCOC1)Nc1cc2cc(c1)Nc1nccc(n1)-c1cccc(c1)CCC/C=C/COC2 (stereo not shown) [XVI-19]")
"group 1"
>>> category("C1=C/COCc2ccc(O/C=C/CN3CCCC3)c(c2)Nc2nccc(n2)-c2cccc(c2)CCC/1 [XVI-34]")
"group 3"
>>> category("C1=C/COCc2ccc(OC/C=C/CN3CCCC3)c(c2)Nc2nccc(n2)-c2cccc(c2)COC/1 [XVI-20]")
"group 3"
>>> category("CN(C)C/C=C/C(=O)Nc1cc2cc(c1)Nc1nccc(n1)-c1cccc(c1)COC/C=C/CN(C)C2 [XVI-26]")
"group 2"
>>> category("O=C(/C=C/CN1CCCC1)Nc1cc2cc(c1)Nc1nccc(n1)-c1cccc(c1)COC/C=C/COC2 [XVI-1]")
"group 1"
>>> category("O=C(/C=C/C(F)(F)F)Nc1cc2cc(c1)Nc1nccc(n1)-c1cccc(c1)COC/C=C/COC2 [XVI-5]")
"group 2"
>>> category("Nc1cc2cc(c1)Nc1nccc(n1)-c1cccc(c1)COC/C=C/COC2 [XIII-1]")
"group 1"
>>> category("O=C(/C=C/c1cnc[nH]1)Nc1cc2cc(c1)Nc1nccc(n1)-c1cccc(c1)COC/C=C/COC2 [XVI-7]")
"group 2"
